Assay: clinical
Settings: human, in vivo
Measured endpoint: Vd (L)
Numbers only, in L.

Report Vd, nothing else, for this compound: "COc1cc(OC)cc(N(CCNC(C)C)c2ccc3ncc(-c4cnn(C)c4)nc3c2)c1"
29

----------
Experiment: clinical
Details: human, in vivo
Measured endpoint: half-life (h)
Numbers only, in h.

Provide only the value of recorded half-life for "COc1cc(OC)cc(N(CCNC(C)C)c2ccc3ncc(-c4cnn(C)c4)nc3c2)c1"
59
